Molecular target: Glucocorticoid receptor (Homo sapiens) (UniProt P04150)
Sequence (P04150 whole entry, looked up): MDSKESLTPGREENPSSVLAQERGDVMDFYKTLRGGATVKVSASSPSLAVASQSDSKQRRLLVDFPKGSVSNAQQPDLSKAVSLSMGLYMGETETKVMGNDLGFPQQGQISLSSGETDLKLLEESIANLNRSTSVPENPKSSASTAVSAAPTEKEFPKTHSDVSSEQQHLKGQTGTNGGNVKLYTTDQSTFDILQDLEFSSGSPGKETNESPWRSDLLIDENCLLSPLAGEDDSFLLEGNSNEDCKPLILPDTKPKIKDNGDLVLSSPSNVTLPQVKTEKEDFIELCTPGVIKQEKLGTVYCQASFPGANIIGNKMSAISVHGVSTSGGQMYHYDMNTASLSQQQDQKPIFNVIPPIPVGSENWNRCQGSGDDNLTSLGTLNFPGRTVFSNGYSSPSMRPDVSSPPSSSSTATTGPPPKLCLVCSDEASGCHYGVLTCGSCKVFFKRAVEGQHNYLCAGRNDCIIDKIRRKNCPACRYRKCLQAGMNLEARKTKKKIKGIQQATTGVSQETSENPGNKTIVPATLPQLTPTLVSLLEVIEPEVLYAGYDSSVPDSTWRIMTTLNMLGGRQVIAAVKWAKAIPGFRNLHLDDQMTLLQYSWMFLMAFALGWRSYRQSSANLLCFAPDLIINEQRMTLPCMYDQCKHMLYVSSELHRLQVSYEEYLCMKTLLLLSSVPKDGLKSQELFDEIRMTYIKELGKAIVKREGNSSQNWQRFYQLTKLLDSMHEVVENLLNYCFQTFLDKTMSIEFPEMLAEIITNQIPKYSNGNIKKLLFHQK
Experiment: qHTS assay to identify small molecule antagonists of the glucocorticoid receptor (GR) signaling pathway (AID 720692)
Conditions: GR-bla HeLa, beta-lactamase FRET ratio, dexamethasone-stimulated, 18 h; series mostly up to 58.5 µM
Results filed as inconclusive are left out. Calls of active or inactive are those of the source. Calls come from the whole dose curve; as a rule, active = well fitted inhibition curve with a large enough effect in the signal ratio in the repeat runs (not every such curve was filed as active); inconclusive = weak or mixed curves, or effect the other way; inactive = no such curve, though single readings can be large or run the other way; the % refers to the signal ratio.
The categories you may choose from are true (1) (active), false (0) (inactive)

Past entries and their recorded results:
compound	answer-label
CC(C(=O)O)c1ccc2c(c1)[nH]c1ccc(Cl)cc12 (stereo not drawn)	false (0)
CCN1C(=O)c2ccccc2C1Nc1ccc(OCCN2CCCCC2)cc1 (stereo not drawn)	false (0)
COc1cc(/C=C/c2ccccc2)oc(=O)c1	false (0)
CC(C)CCCCCOC(=O)CCS	false (0)
O=C(/C=C/c1ccccc1)OC/C=C/c1ccccc1	false (0)

Ask | For CCN(CC)c1ccc2c(-c3ccc(S(=O)(=O)O)cc3S(=O)(=O)[O-])c3ccc(=[N+](CC)CC)cc-3oc2c1 , which call appears in the assay record?
Reply | false (0)

Ask | For Cc1ccc(C(C)C)cc2c(C)ccc1-2 , which call appears in the assay record?
Reply | false (0)

Ask | For CCCCCc1ccc(Cl)cc1 , which call appears in the assay record?
Reply | false (0)

Ask | For Nc1ccc(Oc2ccc(Cl)cc2)cc1 , which call appears in the assay record?
Reply | true (1)

---

Target: Thyrotropin receptor (Homo sapiens) (UniProt P16473)
Sequence (P16473 whole entry, looked up): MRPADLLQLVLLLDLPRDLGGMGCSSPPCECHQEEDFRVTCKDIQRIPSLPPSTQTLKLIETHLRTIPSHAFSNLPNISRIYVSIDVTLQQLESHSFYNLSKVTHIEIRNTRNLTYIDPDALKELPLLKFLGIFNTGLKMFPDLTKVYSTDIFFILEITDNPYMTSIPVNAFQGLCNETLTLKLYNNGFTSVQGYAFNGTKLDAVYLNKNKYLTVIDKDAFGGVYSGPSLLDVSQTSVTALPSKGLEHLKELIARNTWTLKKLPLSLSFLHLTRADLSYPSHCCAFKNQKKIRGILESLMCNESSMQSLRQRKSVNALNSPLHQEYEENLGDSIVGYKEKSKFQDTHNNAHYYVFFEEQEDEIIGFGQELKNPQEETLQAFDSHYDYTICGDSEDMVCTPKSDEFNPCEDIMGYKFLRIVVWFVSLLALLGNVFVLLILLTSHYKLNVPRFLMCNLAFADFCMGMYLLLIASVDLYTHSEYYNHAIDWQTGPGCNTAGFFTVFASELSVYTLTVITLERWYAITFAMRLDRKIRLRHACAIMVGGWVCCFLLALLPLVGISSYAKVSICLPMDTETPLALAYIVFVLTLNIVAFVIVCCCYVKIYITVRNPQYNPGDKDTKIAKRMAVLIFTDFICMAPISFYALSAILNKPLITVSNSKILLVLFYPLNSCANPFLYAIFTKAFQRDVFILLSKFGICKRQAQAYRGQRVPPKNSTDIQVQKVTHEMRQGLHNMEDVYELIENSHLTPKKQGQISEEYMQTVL
Experiment: qHTS assay to identify small molecule antagonists of the thyroid stimulating hormone receptor (TSHR) signaling pathway (AID 1259385); note: % is set by controls: 0 for no effect and ±100 for the full control effect; nearly all actives have a fitted effect of over 20% in size
Conditions: TSHR-HEK293 cAMP HTRF, TSH-stimulated antagonist mode; series mostly up to 92.4 µM
Results filed as inconclusive are left out. Activity calls are given as the source filed them. Calls come from the whole dose curve.
endpoint-label: activity change, negative = inhibition

# annotated cases, reported activity change, negative = inhibition shown
molecule	activity change, negative = inhibition
O=C1CCc2ccc(OCCCCN3CCN(c4cccc(Cl)c4Cl)CC3)cc2N1	inactive
CCCCCCCCCCCCCCCC[N+](C)(C)CC	inactive
COC(=O)c1ccccc1OC	inactive
COc1c(C)c2c(c(O)c1C/C=C(\C)CCC(=O)OCCN1CCOCC1)C(=O)OC2	inactive
CCCCN(CCCC)CC(O)c1cc(Cl)cc2c1-c1ccc(Cl)cc1/C2=C/c1ccc(Cl)cc1 (stereo unspecified)	inactive

Ask | Name the reported activity change, negative = inhibition value associated with the molecule COCCOc1cc2cc(C(=O)NC3CCN(C(C)C)CC3)n(CC(=O)Nc3ccc(Cl)cn3)c2cn1
Reply | inactive

Ask | Name the reported activity change, negative = inhibition value associated with the molecule CCO[C@@H]1O[C@H](C(COCc2ccccc2)OCc2ccccc2)[C@H](OCc2ccccc2)[C@H]1O (stereo partly specified)
Reply | inactive

Ask | Name the reported activity change, negative = inhibition value associated with the molecule c1cnccn1
Reply | inactive

Ask | Name the reported activity change, negative = inhibition value associated with the molecule CN1CCN2c3ccccc3Cc3ccccc3C2C1 (stereo unspecified)
Reply | inactive

Ask | Name the reported activity change, negative = inhibition value associated with the molecule CCC(=O)OC(=O)CC
Reply | inactive

Ask | Name the reported activity change, negative = inhibition value associated with the molecule Cc1c(C)c2c(c(C)c1OC(=O)c1cccnc1)CC[C@@](C)(CCC[C@H](C)CCC[C@H](C)CCCC(C)C)O2
Reply | inactive

---

Test: A CellTox Green Cytotoxicity Assay to monitor cytotoxicity in HEK293 cells - 40 hour (AID 1224871); note: % is set by controls: 0 for no effect and ±100 for the full control effect; nearly all actives have a fitted effect of over 45% in size
Settings: CellTox Green fluorescence; series mostly up to 76.8 µM
Results filed as inconclusive are left out. The source made the active and inactive calls. Calls follow the shape of the dose curve; as a rule, active = well fitted activation curve with a large enough effect in the repeat runs; inconclusive = weak or mixed curves; inactive = flat fitted curve, though single readings scatter.
endpoint-label: outcome

# annotated cases, reported outcome shown
compound	outcome
Oc1ccccc1O	inactive
CNc1ccc([N+](=O)[O-])cc1	inactive
CCCCOC(=O)CC	inactive
OC1CCC(C2CCCCC2)CC1 (configuration not stated)	inactive
CC[N+](CC)(CC)CCOC(=O)C(C1CCCC1)C1CCCC1	inactive
OC12N=C(c3ccccc3)SC1Cc1cc(Cl)ccc12 (configuration not stated)	inactive

Here's the next entry for you.
Ask | Name the reported outcome value associated with the compound CCCCCCCCCCOC(=O)c1ccccc1C(=O)OCCCCCCCC
Reply | inactive

---

Test: qHTS RealTime-Glo MT Cell Viability Assay in HEK293 cells - 40 hour (AID 1224874); note: potency is the fitted concentration of half-maximal effect; nearly all actives have a fitted effect of over 50% in size
Conditions: RealTime-Glo luminescence
Results filed as inconclusive are left out. Activity calls are given as the source filed them. Calls come from the whole dose curve; as a rule, active = well fitted cell-killing curve with a large enough effect in the repeat runs; inconclusive = weak or mixed curves, or effect the other way; inactive = flat fitted curve, though single readings scatter.
// values below are reported Potency

# annotated cases, reported Potency shown
molecule	experimental-value
CN1CCN(Cc2cc(-c3ccc4[nH]c(=O)oc4c3)co2)[C@@H](c2ccc(F)cc2)C1	26.5 µM (active)
CCCCCc1ccc(Cl)cc1	15.5 µM (active)

Ask | Name the reported Potency value associated with the molecule CCOC(=O)c1ccc(C2CCC(NC[C@H](O)COc3ccc(O)c(NS(C)(=O)=O)c3)CC2)cc1 (stereo not given in full)
Reply | 20.2 µM (active)

Ask | Name the reported Potency value associated with the molecule O=c1[nH]c2ccccc2n1CCCN1CCN(C(c2ccccc2)c2ccccc2)CC1
Reply | 12 µM (active)

Ask | Name the reported Potency value associated with the molecule CCN(CC)C(=O)c1cc(S(=O)(=O)Cc2ccccc2)c(N2CCC(c3ccccc3)CC2)cc1N(CC)CCN(C)C
Reply | 7.67 µM (active)

---

Experiment: qHTS assay for small molecule agonists of the p53 signaling pathway - cell viability (AID 651633); note: nearly all actives have a fitted effect of over 30% in size
Details: p53RE-bla HCT-116 viability, ATP luminescence, 16 h; series mostly up to 83.3 µM
Inconclusive results are not listed. Activity calls are given as the source filed them. Calls follow the shape of the full dose curve.
The categories you may choose from are yes (1) = active, no (0) = inactive

molecule	answer-label
O=C(O)CCN(C1(C(=O)NO)CCCC1)S(=O)(=O)c1ccc(Oc2ccc(F)cc2)cc1	no (0)
CC(=O)Oc1cc2c(s1)CCN(C(C(=O)C1CC1)c1ccccc1F)C2 (configuration not stated)	no (0)
CCc1oc2ccccc2c1C(=O)c1cc(I)c(O)c(I)c1	yes (1)
C=CCCC(=O)/C=C/C1C(C)=CCCC1(C)C (configuration not stated)	no (0)

Ask | For O=C(/C=C/c1ccc(O)c(O)c1)O[C@@H](C(=O)O)[C@@H](OC(=O)/C=C/c1ccc(O)c(O)c1)C(=O)O , which call appears in the assay record?
Reply | no (0)

Ask | For C=Cc1ccccc1C=C , which call appears in the assay record?
Reply | no (0)

Ask | For O=C(O)[C@H](O)[C@@H](O)[C@H](O[C@@H]1O[C@H](CO)[C@H](O)[C@H](O)[C@H]1O)[C@H](O)CO , which call appears in the assay record?
Reply | no (0)

Ask | For CC(C)Cn1cnc2c(N)nc3ccccc3c21 , which call appears in the assay record?
Reply | no (0)

Ask | For CCc1ccc(Br)cc1 , which call appears in the assay record?
Reply | no (0)

Ask | For CCCCCCOC(=O)C(C)CC (configuration not stated) , which call appears in the assay record?
Reply | no (0)

Ask | For CC(N=C(NC#N)Nc1ccncc1)C(C)(C)C (configuration not stated) , which call appears in the assay record?
Reply | no (0)

Ask | For COc1cc2nc(N3CCN(C(=O)c4ccco4)CC3)nc(N)c2cc1OC , which call appears in the assay record?
Reply | no (0)

---

Assay: qHTS assay for small molecules that induce genotoxicity in human embryonic kidney cells expressing luciferase-tagged ATAD5 - cell viability (AID 651634); note: potency is the fitted concentration of half-maximal effect; nearly all actives have a fitted effect of over 25% in size
Settings: HEK293T ATAD5-luc cells viability, CellTiter-Fluor, 15.5 h; series mostly up to 83.3 µM
Records with an inconclusive call do not appear. Calls of active or inactive are those of the source. Calls follow the shape of the full dose curve.
The categories you may choose from are 1 (yes) (active), 0 (no) (inactive)

Ask | For C=CC(=O)OCCOC(=O)C=C , which call appears in the assay record?
Reply | 1 (yes)

---

Assay: Caspase-3/7 induction in HepG2 cells by small molecules, qHTS assay (AID 1346978); note: nearly all actives have a fitted effect of over 15% in size
Conditions: HepG2 caspase-3/7 activation, Caspase-Glo luminescence, 17 h; series mostly up to 92.4 µM
Text: National Center for Advancing Translational Sciences [NCATS] NIH Chemical Genomics Center [NCGC] U.S. Environmental Protection Agency [EPA] National Institutes of Environmental Health Sciences [NIEHS] National Toxicology Program [NTP] Assay overview: Apoptosis is a process of programmed cell death and plays a central role in the development of multicellular organisms. […]
Records with an inconclusive call do not appear. Calls of active or inactive are those of the source. Calls come from the whole dose curve; as a rule, active = well fitted activation curve with a large enough effect in the repeat runs; inconclusive = weak or mixed curves; inactive = flat fitted curve, though single readings scatter.
The categories you may choose from are active, inactive

Past entries and their recorded results:
molecule	answer-label
COc1cc(S(=O)(=O)O)c(C)cc1N=Nc1c(O)ccc2cc(S(=O)(=O)O)ccc12	inactive
CC(C)(C)NSc1nc2ccccc2s1	inactive
CN1CCN(Cc2cc(-c3ccc4[nH]c(=O)oc4c3)co2)[C@@H](c2ccc(F)cc2)C1	inactive
COC(=O)c1ccccc1C	inactive
CCCCCC/C=C\CCCCCCCC(=O)O	inactive

Ask | For CCN(CC)C(=O)c1cc(S(=O)(=O)Cc2ccccc2)c(N2CCC(c3ccccc3)CC2)cc1N(CC)CCN(C)C , which call appears in the assay record?
Reply | active

Ask | For OC1CCCc2ccccc21 (stereo not given) , which call appears in the assay record?
Reply | inactive

Ask | For O=C(Nc1ccc2c(O)c(N=Nc3ccc(N=Nc4ccc(S(=O)(=O)O)cc4)cc3)c(S(=O)(=O)O)cc2c1)c1ccccc1 , which call appears in the assay record?
Reply | inactive

Ask | For O=S(=O)(O)c1ccccc1/C=C/c1ccc(-c2ccc(/C=C/c3ccccc3S(=O)(=O)O)cc2)cc1 , which call appears in the assay record?
Reply | inactive

Ask | For Cc1nc(-c2ccc(Cl)cc2)oc1COC(C)(C)C(=O)O , which call appears in the assay record?
Reply | inactive
